Every entry's value here was drawn from patent US20230235054A1.

Entries annotated with measured koff
# system_name: T1, RatNectin4-His (rat, UniProt D3ZET1 31-348)
# T1 construct: Immobilized on the SPR chip; not shown: His tag
# T1 sequence: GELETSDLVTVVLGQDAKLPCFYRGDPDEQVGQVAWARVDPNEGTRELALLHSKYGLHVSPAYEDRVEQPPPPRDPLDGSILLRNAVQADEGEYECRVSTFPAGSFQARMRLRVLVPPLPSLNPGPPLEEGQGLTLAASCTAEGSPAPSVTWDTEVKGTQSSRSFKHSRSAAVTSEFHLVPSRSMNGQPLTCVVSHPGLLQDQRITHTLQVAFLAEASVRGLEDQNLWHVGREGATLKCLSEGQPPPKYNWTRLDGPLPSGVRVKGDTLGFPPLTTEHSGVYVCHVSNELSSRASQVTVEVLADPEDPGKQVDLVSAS
# assay_protocol: SPR, RatNectin4-His immobilized, pH 6.5
parameter_measured: koff (s⁻¹)

binder="BAP-143-00-01 (antibody, V domains shown, Used as a conjugate with a linker payload (CAB ADC)) VH: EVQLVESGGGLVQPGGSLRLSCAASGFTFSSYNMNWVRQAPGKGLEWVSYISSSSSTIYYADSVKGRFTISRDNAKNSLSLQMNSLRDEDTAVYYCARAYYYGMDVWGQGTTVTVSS VL: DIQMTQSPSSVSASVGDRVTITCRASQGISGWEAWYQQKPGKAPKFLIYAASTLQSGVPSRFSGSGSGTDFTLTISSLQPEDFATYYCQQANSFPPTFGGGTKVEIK" parameter_measured=koff recorded_number=0.000953
binder="BAP-143-07-03-12 (antibody, V domains shown, Used as a conjugate with a linker payload (CAB ADC)) VH: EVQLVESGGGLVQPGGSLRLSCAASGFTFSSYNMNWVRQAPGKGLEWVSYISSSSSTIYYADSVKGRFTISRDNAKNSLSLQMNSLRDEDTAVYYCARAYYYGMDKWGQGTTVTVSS VL: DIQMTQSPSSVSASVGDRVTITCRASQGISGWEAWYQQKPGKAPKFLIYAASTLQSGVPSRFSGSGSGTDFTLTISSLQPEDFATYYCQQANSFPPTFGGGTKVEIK" parameter_measured=koff recorded_number=0.000868
binder="BAP-143-06-24-16 (antibody, V domains shown, Used as a conjugate with a linker payload (CAB ADC)) VH: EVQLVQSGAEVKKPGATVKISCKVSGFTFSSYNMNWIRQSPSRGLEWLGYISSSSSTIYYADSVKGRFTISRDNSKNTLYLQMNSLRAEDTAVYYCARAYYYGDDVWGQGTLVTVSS VL: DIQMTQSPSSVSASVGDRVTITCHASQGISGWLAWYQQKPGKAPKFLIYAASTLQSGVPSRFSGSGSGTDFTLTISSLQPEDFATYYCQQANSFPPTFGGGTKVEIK" parameter_measured=koff recorded_number=0.000128
binder="BAP-143-06-33-16 (antibody, V domains shown, Used as a conjugate with a linker payload (CAB ADC)) VH: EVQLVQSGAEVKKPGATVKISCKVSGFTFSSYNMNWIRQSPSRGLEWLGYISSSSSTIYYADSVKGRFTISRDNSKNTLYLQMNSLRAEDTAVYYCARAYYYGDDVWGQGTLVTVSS VL: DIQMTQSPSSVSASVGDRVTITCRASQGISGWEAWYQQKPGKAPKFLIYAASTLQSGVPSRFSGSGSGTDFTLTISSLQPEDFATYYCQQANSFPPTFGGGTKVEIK" parameter_measured=koff recorded_number=0.000304
